Hey, just so you know, these numbers are from paper PMC2695807.

Experimental target: DmX receptor (DmXR) (Drosophila melanogaster, UniProt Q70GQ8)
Construct: HA-DmXR WT, transiently expressed in HEK 293 cells
Sequence (Q70GQ8 1-1073): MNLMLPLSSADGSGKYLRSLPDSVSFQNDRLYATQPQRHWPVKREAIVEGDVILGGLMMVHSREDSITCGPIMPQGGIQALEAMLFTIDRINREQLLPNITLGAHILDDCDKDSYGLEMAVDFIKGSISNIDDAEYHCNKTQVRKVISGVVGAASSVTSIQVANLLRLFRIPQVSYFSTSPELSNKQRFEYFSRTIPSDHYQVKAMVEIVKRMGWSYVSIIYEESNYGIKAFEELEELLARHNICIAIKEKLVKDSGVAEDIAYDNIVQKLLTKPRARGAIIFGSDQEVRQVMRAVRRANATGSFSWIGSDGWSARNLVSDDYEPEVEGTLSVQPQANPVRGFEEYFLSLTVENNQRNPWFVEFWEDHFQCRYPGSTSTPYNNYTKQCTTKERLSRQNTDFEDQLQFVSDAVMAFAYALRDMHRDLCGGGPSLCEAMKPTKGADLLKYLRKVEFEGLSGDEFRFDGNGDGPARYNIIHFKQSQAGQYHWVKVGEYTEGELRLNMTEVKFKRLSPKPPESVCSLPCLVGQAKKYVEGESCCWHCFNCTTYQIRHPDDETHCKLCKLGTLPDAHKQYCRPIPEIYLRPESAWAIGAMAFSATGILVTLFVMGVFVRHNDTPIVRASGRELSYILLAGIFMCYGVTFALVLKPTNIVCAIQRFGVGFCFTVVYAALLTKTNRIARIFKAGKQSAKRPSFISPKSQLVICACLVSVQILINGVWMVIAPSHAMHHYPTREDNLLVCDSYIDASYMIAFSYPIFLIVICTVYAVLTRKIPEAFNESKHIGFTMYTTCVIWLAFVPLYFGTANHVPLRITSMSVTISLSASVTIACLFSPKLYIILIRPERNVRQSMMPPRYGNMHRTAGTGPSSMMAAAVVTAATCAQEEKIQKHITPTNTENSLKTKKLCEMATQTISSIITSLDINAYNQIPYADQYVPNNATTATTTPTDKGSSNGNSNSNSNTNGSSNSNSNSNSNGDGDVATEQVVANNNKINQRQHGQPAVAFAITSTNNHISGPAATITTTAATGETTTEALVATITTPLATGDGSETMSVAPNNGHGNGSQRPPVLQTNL
Run description: IP accumulation in HEK cells coexpressing DmXR and Gqi9; inhibition of activation by […] L-canavanine (antagonist)

Smiles input	IC50, µM
CN=C(N)NCCC[C@H](N)C(=O)O	200
